System: biotinyl-Leu-oxazolone
Assay: self-aminoacylation, catalytic enhancement (BLO) (fold over background); higher = more active; k-Seq, kA / k0A0; sequences stand for … in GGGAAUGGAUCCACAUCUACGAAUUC…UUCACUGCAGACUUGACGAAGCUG
Variants at the floor of the assay were thinned out.
Examples of sequences with documented self-aminoacylation follow.
Answer field: number only, no words.

{"columns": ["residueString", "readoutKind", "testResult"],
 "data": [
  ["AUACUUCAAACAAUCCGUCUG [Fam1A.1 aminoacylation ribozyme variant]", "self-aminoacylation", 1.09],
  ["UUUACCCUGGUCAUCGAGUCA [Fam2.1 aminoacylation ribozyme variant]", "self-aminoacylation", 0.713],
  ["CCACACUUAAGGCAAUCGGUC [Fam1B.1 aminoacylation ribozyme variant]", "self-aminoacylation", 1.03],
  ["CGACUUCAAACAAUUGGUCUG [Fam1A.1 aminoacylation ribozyme variant]", "self-aminoacylation", 0.999],
  ["AUAACGCUGGUCAUCGAGUGA [Fam2.1 aminoacylation ribozyme variant]", "self-aminoacylation", 4.06],
  ["AUUACCGUGAUCAUCGAGUGA [Fam2.1 aminoacylation ribozyme variant]", "self-aminoacylation", 8.78],
  ["AUUCAUCUAGGUCAGCGGGUG [Fam2.2 aminoacylation ribozyme variant]", "self-aminoacylation", 5.56],
  ["ACGUUUGCCAAUAGUCGCAAG [Fam3.1 aminoacylation ribozyme variant]", "self-aminoacylation", 2.16],
  ["AUUACCCUGUUCUUCGAGUGA [Fam2.1 aminoacylation ribozyme variant]", "self-aminoacylation", 5.58],
  ["ACUACCCAGGUCAUCGAGUGA [Fam2.1 aminoacylation ribozyme variant]", "self-aminoacylation", 6.28]
]}

State, for biotinyl-Leu-oxazolone, measured self-aminoacylation of the sequence listed here: CCUCACUUCAAGCAAUCGGUU [Fam1B.1 aminoacylation ribozyme variant] 1.7

Enter recorded self-aminoacylation with biotinyl-Leu-oxazolone for AUUCACGUAGGUCAUCAGGUG [Fam2.2 aminoacylation ribozyme variant] here. 2.7

Check biotinyl-Leu-oxazolone data and give self-aminoacylation for CUACUUCAACCAAUCAGUCUG [Fam1A.1 aminoacylation ribozyme variant] . 0.794

Jot down self-aminoacylation (biotinyl-Leu-oxazolone) of AAGUUUCCUAACAGUCGCAAG [Fam3.1 aminoacylation ribozyme variant] . 0.963

Lab note: biotinyl-Leu-oxazolone assay, enter self-aminoacylation for UCACACUUCGAGCAAUCGGUC [Fam1B.1 aminoacylation ribozyme variant] here 0.931

GET self-aminoacylation where system = biotinyl-Leu-oxazolone and item = AUUACCCUGGUAAUGGAGUGA [Fam2.1 aminoacylation ribozyme variant] 8.53

Specify self-aminoacylation for CUACUCCAAAAAAUCGGUCUG [Fam1A.1 aminoacylation ribozyme variant] , system biotinyl-Leu-oxazolone. 0.857

Report self-aminoacylation from biotinyl-Leu-oxazolone testing of CCACACUUCAAGCCCUCGGUC [Fam1B.1 aminoacylation ribozyme variant] 1.64

Report self-aminoacylation on biotinyl-Leu-oxazolone for this entry: AUUCACCUAGGUCAUCAAGUG [Fam2.2 aminoacylation ribozyme variant] 0.756

Specify self-aminoacylation for AUUACCCUGGUCCUCGAGUGC [Fam2.1 aminoacylation ribozyme variant] , system biotinyl-Leu-oxazolone. 1.07

Give self-aminoacylation only, for AAUCACCUAGGUAAUCGGGUG [Fam2.2 aminoacylation ribozyme variant] , using biotinyl-Leu-oxazolone data. 3.17

Supply self-aminoacylation measured with biotinyl-Leu-oxazolone for CUACUUCAUACAAUCUGUCUG [Fam1A.1 aminoacylation ribozyme variant] . 0.566

Consider the sequence AUUCACCUAGUUCAUUGGGUG [Fam2.2 aminoacylation ribozyme variant] tested on biotinyl-Leu-oxazolone; state its self-aminoacylation. 3.47

Name the recorded self-aminoacylation of CUACUGCAACCAAUCGGUCUG [Fam1A.1 aminoacylation ribozyme variant] , assay system biotinyl-Leu-oxazolone. 0.495

---

System: biotinyl-Val-oxazolone
Test: self-aminoacylation, catalytic enhancement (BVO) (fold over background); higher = more active; k-Seq, kA / k0A0; sequences stand for … in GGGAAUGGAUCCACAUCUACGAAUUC…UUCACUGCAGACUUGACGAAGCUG
Variants at the floor of the assay were thinned out.
Recorded self-aminoacylation, one value per entry.
Give your answer as a number; write no unit.

Consider the reported self-aminoacylation for these sequences:
{"columns": ["residueString", "self-aminoacylation"],
 "data": [
  ["AUUACCCUGGUCGGCGAGUGA [Fam2.1 aminoacylation ribozyme variant]", 5.03],
  ["CCUCACUUCAAGCAAUCGCUC [Fam1B.1 aminoacylation ribozyme variant]", 1.18],
  ["AUUCAACUAGGUCAUCGGAUG [Fam2.2 aminoacylation ribozyme variant]", 0.708],
  ["CUACUUCAAGCAAUCGGGCUG [Fam1A.1 aminoacylation ribozyme variant]", 1.61],
  ["AUUCACCUGGCUCAUCGGGUG [Fam2.2 aminoacylation ribozyme variant]", 3.81]
]}

Moving on to another sequence below.
Look up self-aminoacylation of AAGUUUGGUAAUAGUCGCAAA [Fam3.1 aminoacylation ribozyme variant] and report it. 1.44

---

Test system: biotinyl-Leu-oxazolone
Test: self-aminoacylation, catalytic enhancement (BLO) (fold over background); higher = more active; k-Seq, kA / k0A0; sequences stand for … in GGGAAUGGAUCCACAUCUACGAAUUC…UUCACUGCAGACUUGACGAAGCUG
Variants at the floor of the assay were thinned out.
readoutKind: self-aminoacylation
Please reply with the number alone, leaving off any unit.

{"columns": ["residueString", "readoutKind", "testResult"],
 "data": [
  ["CUACUUCAAACAAUCGGUAAG [Fam1A.1 aminoacylation ribozyme variant]", "self-aminoacylation", 0.448],
  ["CCACACUUCAAGCAACCGGCC [Fam1B.1 aminoacylation ribozyme variant]", "self-aminoacylation", 2.77],
  ["GUUCACCUAGGUCAUCGGAUG [Fam2.2 aminoacylation ribozyme variant]", "self-aminoacylation", 0.728],
  ["CCACUCUUCAAGCAAGCGGUC [Fam1B.1 aminoacylation ribozyme variant]", "self-aminoacylation", 1.09],
  ["CCACACUUCAGGCAAUCGGUU [Fam1B.1 aminoacylation ribozyme variant]", "self-aminoacylation", 2.13],
  ["AUUACCCAGGUCGUCGAGUGA [Fam2.1 aminoacylation ribozyme variant]", "self-aminoacylation", 0.669],
  ["CAGUUUGCUAUUAGUCGCAAG [Fam3.1 aminoacylation ribozyme variant]", "self-aminoacylation", 1.5]
]}

# evaluate next
Could you please provide reported self-aminoacylation for AUUCACCUAGGUAAUCGGCUG [Fam2.2 aminoacylation ribozyme variant] ? Thanks! 1.31

---

System: biotinyl-Val-oxazolone
Assay: self-aminoacylation, catalytic enhancement (BVO) (fold over background); higher = more active; k-Seq, kA / k0A0; sequences stand for … in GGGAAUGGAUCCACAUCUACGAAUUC…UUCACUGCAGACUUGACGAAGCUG
Fewer inactive variants are shown than the library holds.
readoutKind: self-aminoacylation
Give only the figure.

Record excerpt, results attached:
{"columns": ["residueString", "self-aminoacylation"],
 "data": [
  ["AAGUUUGCUAAUAGUCGGUAG [Fam3.1 aminoacylation ribozyme variant]", 0.771],
  ["AAUCACCUAGGUAAUCGGGUG [Fam2.2 aminoacylation ribozyme variant]", 2.08]
]}

Alright, here's another sequence for you.
Identify the reported self-aminoacylation for the following entry. AUUUCCUUGGUCAUCGAGUGA [Fam2.1 aminoacylation ribozyme variant] 4.63

---

Form field: self-aminoacylation (one value per entry).
System: biotinyl-Trp-oxazolone
Experiment: self-aminoacylation, catalytic enhancement (BWO) (fold over background); higher = more active; k-Seq, kA / k0A0; sequences stand for … in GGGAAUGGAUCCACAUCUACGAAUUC…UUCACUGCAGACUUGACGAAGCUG
Fewer inactive variants are shown than the library holds.
Response field accepts a number only; no unit should be typed.

Below, 3 sequences whose answers are already recorded.
{"columns": ["residueString", "experimentalSystem", "self-aminoacylation"],
 "data": [
  ["CCACACUUAAGGCAAUCGGUC [Fam1B.1 aminoacylation ribozyme variant]", "biotinyl-Trp-oxazolone", 1.25],
  ["AUUACCCUGGUCAUCGAGUGC [Fam2.1 aminoacylation ribozyme variant]", "biotinyl-Trp-oxazolone", 8.98],
  ["CUCCGUCAAACAAUCGGUCUG [Fam1A.1 aminoacylation ribozyme variant]", "biotinyl-Trp-oxazolone", 1.29]
]}

Consider the sequence CUACAUCAAACAAUCGGGCUG [Fam1A.1 aminoacylation ribozyme variant] . State its measured self-aminoacylation. 1.29

---

Tested on: biotinyl-Ile-oxazolone
Test: self-aminoacylation, catalytic enhancement (BIO) (fold over background); higher = more active; k-Seq, kA / k0A0; sequences stand for … in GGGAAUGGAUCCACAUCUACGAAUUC…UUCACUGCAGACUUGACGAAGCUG
This sample holds only a part of the variants without activity.
Consider the following partition of reported self-aminoacylation into named classes: bottom bin = under 0.9, middle bin = from 0.9 up to 2, top bin = 2 and over

{"columns": ["residueString", "experimentalSystem", "categoryLabel"],
 "data": [
  ["AUUCACCUAGGUCAUCGCGGG [Fam2.2 aminoacylation ribozyme variant]", "biotinyl-Ile-oxazolone", "top bin"],
  ["CCACACUUCUAGCACUCGGUC [Fam1B.1 aminoacylation ribozyme variant]", "biotinyl-Ile-oxazolone", "bottom bin"],
  ["CUAAUUCAAACAAUCGGUUUG [Fam1A.1 aminoacylation ribozyme variant]", "biotinyl-Ile-oxazolone", "bottom bin"]
]}

Which category does the recorded self-aminoacylation put CUACUUCAAACAAUCGAACUG [Fam1A.1 aminoacylation ribozyme variant] in? bottom bin

Class? Entry: CCACGCUUCAAGCAAUCGGUG [Fam1B.1 aminoacylation ribozyme variant] top bin

Form: Item = CCAAACUUCAAGCAAUUGGUC [Fam1B.1 aminoacylation ribozyme variant] ; Class = ? bottom bin

Just checking, what class would you give CAGUUUGCUAAUAGUAGCAAG [Fam3.1 aminoacylation ribozyme variant] here? middle bin
